- Tested on: cyno B7-H3
- Sequence (as listed by the source): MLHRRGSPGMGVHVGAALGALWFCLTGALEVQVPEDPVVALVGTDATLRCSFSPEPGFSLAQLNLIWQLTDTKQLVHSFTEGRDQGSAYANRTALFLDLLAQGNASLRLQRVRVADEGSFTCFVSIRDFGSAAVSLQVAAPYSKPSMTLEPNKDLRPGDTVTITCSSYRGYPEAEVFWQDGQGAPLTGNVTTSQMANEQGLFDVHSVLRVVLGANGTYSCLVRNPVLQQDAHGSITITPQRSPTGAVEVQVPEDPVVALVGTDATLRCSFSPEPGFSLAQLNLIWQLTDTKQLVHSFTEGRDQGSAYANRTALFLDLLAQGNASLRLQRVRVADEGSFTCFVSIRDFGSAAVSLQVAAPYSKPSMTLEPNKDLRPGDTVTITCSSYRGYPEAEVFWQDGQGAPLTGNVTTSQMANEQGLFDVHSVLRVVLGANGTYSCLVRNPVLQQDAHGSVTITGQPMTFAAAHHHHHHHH
- assay_remarks: Biacore T200 SPR binding kinetics, mAb capture, soluble ECD of cyno B7-H3
- Set-up: species or system cynomolgus monkey
- measurement_conditions: 1:1 binding model
attribute_measured: ka (1/Ms) cynoB7-H3 (M⁻¹ s⁻¹)
// units = M⁻¹ s⁻¹; emit number, no label

[Q] Sample Ab8: murine anti-B7-H3 mAbs; mouse hybridoma derived (antibody, V domains shown) VH: EVKLVESGGGLVKPGGSLKLSCAASGFTFSSYGMSWVRQTPEKRLEWVATISGGGNYTYCPDSVKGRFTISRDNAKNNLYLQMSSLRSEDTALYYCTRQRGYDYHYAMDFWGQGTSVTVSS VL: DIQMTQSPASLSVSVGETVTITCRASENIYSNLAWHQQKQGKSPQLLVYAATNLADGVPSRFSGNGSDTQYSLKINSLQSEDFGSYFCQNFWGTSWTFGGGTKLEIK — what was its ka (1/Ms) cynoB7-H3?
[A] 160000
